- Target Or System: human FAAH (Homo sapiens, UniProt O00519)
- Construct: host or cells: COS-7 cells, transient transfection; 13,000 g membrane fraction solubilised in 1% Triton X-100
- Sequence (O00519 whole entry): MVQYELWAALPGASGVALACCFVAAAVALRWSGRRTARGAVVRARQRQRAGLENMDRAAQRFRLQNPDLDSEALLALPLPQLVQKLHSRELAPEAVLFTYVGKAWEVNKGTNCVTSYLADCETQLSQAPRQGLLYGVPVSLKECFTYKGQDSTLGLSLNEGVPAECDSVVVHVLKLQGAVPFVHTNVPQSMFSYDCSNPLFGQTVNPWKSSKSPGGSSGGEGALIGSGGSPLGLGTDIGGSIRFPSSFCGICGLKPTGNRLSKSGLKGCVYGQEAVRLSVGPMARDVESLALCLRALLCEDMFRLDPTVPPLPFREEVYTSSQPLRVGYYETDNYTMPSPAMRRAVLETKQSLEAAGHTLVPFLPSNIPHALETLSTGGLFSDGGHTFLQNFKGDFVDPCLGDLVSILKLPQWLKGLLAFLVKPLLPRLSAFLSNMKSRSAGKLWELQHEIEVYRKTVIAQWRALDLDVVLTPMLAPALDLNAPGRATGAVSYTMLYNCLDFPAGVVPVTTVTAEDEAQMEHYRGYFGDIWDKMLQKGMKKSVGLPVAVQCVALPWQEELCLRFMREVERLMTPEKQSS
- Experiment Notes: Human FAAH biochemical inhibition assay (AMC arachidonoyl amide fluorescence)
- Experimental Conditions: Table 2, human FAAH (no asterisk); read-out: Activity (Ki)
Observable: Ki

Use the examples below as a reference point.
[[record]]
molecule = "OB(O)c1ccc(OCCCCc2ccccc2)cc1"
readout_value = "0.01 to 0.1 µM"

[[record]]
molecule = "Cc1cc(Oc2ccc(B(O)O)cc2)ccc1Cl"
readout_value = "< 0.01 µM"

[[record]]
molecule = "C/C(=N\\OCc1ccccc1)c1ccc(B(O)O)cc1"
readout_value = "< 0.01 µM"

[[record]]
molecule = "OB(O)c1cnn(Cc2ccccc2)c1"
readout_value = "> 1 µM"

[[record]]
molecule = "O=C(CCCCc1ccccc1)Nc1cccc(CCOc2ccc(B(O)O)c(F)c2)c1"
readout_value = "< 0.01 µM"

[[record]]
molecule = "OB(O)c1ccc(/C=C\\c2ccccc2)cc1"
readout_value = "> 1 µM"

[[record]]
molecule = "CNc1cccc(Oc2ccc(B(O)O)c(F)c2)c1"
readout_value = "< 0.01 µM"

[[record]]
molecule = "COc1cccc(Oc2ccc(B(O)O)c(F)c2)c1"
readout_value = "< 0.01 µM"

[[record]]
molecule = "O=C(N[C@H](COc1ccc(B(O)O)c(F)c1)Cc1ccccc1)c1ccccc1"
readout_value = "0.01 to 0.1 µM"

[[record]]
molecule = "OB(O)c1ccc(CN2CCc3ccccc32)cc1"
readout_value = "< 0.01 µM"


**Q:** With human FAAH (Homo sapiens, UniProt O00519) as the test system, provide measured Ki for this molecule: `CN(Cc1ccccc1)[C@@H](COc1ccc(B(O)O)c(F)c1)Cc1ccccc1`
**A:** 0.01 to 1 µM

**Q:** With human FAAH (Homo sapiens, UniProt O00519) as the test system, provide measured Ki for this molecule: `OB(O)c1ccc(OCc2ccccc2)c(Cl)c1`
**A:** 0.01 to 0.1 µM

**Q:** With human FAAH (Homo sapiens, UniProt O00519) as the test system, provide measured Ki for this molecule: `OB(O)c1ccc(OCCCc2ccccc2)cc1F`
**A:** < 0.01 µM

**Q:** With human FAAH (Homo sapiens, UniProt O00519) as the test system, provide measured Ki for this molecule: `C[C@@H](NC(=O)c1ccc(B(O)O)cc1)c1ccccc1`
**A:** 0.01 to 0.1 µM

**Q:** With human FAAH (Homo sapiens, UniProt O00519) as the test system, provide measured Ki for this molecule: `OB(O)c1ccc(-c2ccc(F)c(F)c2)cc1F`
**A:** < 0.01 µM

**Q:** With human FAAH (Homo sapiens, UniProt O00519) as the test system, provide measured Ki for this molecule: `OB(O)c1csc2cc(Cl)ccc12`
**A:** 0.01 to 0.1 µM

**Q:** With human FAAH (Homo sapiens, UniProt O00519) as the test system, provide measured Ki for this molecule: `CN(C(=O)c1ccc(B(O)O)cc1)c1ccccc1`
**A:** 0.01 to 0.1 µM

**Q:** With human FAAH (Homo sapiens, UniProt O00519) as the test system, provide measured Ki for this molecule: `OB(O)c1cc(F)c(Oc2cccc(F)c2)c(F)c1`
**A:** < 0.01 µM

**Q:** With human FAAH (Homo sapiens, UniProt O00519) as the test system, provide measured Ki for this molecule: `Nc1cc(Oc2cccc(F)c2)ccc1B(O)O`
**A:** > 1 µM

**Q:** With human FAAH (Homo sapiens, UniProt O00519) as the test system, provide measured Ki for this molecule: `CC(=O)c1ccc(-c2ccc(B(O)O)cc2)cc1`
**A:** < 0.01 µM

**Q:** With human FAAH (Homo sapiens, UniProt O00519) as the test system, provide measured Ki for this molecule: `OB(O)c1ccc(OCCc2ccccc2)cc1F`
**A:** < 0.01 µM

From: patent US8329675B2
